All values here come from paper PMC10397247.

- Subject of test: T1, 4H1449-bH
- T1 chain: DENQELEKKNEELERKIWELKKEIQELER
- Experiment summary: two-hybrid library CCNG1;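 further: natural log of median RNA to DNA barcode read ratio; higher means stronger binding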
Entries annotated with measured interaction score
# output: bare number, no unit

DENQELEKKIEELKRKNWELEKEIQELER [4H1393-bH] | -2.77
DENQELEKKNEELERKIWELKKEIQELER [4H1449-bH] | -1.25
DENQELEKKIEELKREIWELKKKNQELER [4H1359-bH] | 0.00778

From here, focus on the item given below.
QUERY: Answer with the recorded interaction score for the binder listed here: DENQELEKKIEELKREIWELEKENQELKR [4H1348-bH]
RESULT: 1.19
